ASSAYED TARGET: T1, Cynomolgus monkey latent myostatin (cynomolgus monkey, UniProt Q95J86 25-266; Q95J86 267-375)
T1 construct: Latent form = complex of two propeptides and the mature dimer; also called Cyno latent myostatin
T1 sequence 1: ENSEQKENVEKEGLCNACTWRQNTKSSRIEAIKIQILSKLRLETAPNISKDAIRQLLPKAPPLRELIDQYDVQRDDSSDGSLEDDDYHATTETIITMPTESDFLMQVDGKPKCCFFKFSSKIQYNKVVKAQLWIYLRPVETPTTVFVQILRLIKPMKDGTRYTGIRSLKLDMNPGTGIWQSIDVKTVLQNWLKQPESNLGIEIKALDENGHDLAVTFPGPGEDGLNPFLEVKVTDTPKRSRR
T1 sequence 2: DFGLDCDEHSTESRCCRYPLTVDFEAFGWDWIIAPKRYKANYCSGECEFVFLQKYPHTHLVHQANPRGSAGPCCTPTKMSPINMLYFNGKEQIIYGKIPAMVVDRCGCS
PROCEDURE SUMMARY: SPR (BIACORE T200) 37C, pH 7.4, antibody captured by ProA/G
ATTRIBUTE MEASURED: Kd
For clarity, give the value followed by its unit.

MS_M103205H1046-SG1/M103202L889-SK1 (antibody, human IgG1, kappa, V domains shown, also called MS1032LO10-SG1) VH: QVTLKESGPVLVKPTETLTLTCTVSGIDLSHTDISWVRQAPGKGLEWVGIISYAGKTYYASWAKKRLTISKDTSKNQVVLTMTNMDPVDTATYYCARGVPAYSHGGDLWGQGTLVTVSS VL: DIVMTQSPATLSLSPGERATLSCTSSQSVYHANWLSWFQQKPGQPPKLLIYWASTLAYGVPSRFSGSGSGTDFTLTISSLQPEDAATYYCAGGYGGGRYAFGQGTKVEIKR :: 0.419 nM

Next binder, please.
## Task Which Kd is listed for MS_M103245H795-SG1/M103202L1045-SK1 (antibody, human IgG1, kappa, V domains shown, also called MS1032LO21-SG1) VH: QVTLKESGPVLVKPTETLTLTCKVSGIDLSHDDISWVRQAPGKGLEWVSIISYAGSTYYASWAKGRLTISKDTSKNQVVLTMTNMDPVDTATYYCARGVPAYSHGGDLWGQGTLVTVSS VL: DIVMTQSPATLSLSPGERATLSCTTSQSVYHENWLSWFQQKPGQPPKLLIYWASTLAYGVPSRFSGSGSGTDFTLTISSLQPEDAATYYCAGGYGGGRYAFGQGTKVEIKR ?
## Result 0.309 nM
